This collection of values is drawn from PubChem BioAssay (NCI).

test system: COLO 205 colon; experiment: NCI-60 one-dose screen, 48 h; conditions: 10 µM unless noted
The panel holds about 83,000 compounds, 20% with a hit somewhere; the sample as a whole holds those more often. Active and inactive are the calls of the source. How the source made its calls: active means growth percent below 10; inactive means the rest.
Respond with a class label; see 1 = active, -1 = inactive

Input line: How was CCOC(=O)c1nnn(C(Cc2ccccc2Cl)C(=O)OCC)c1C (configuration not stated) classified in this test?
Output line: -1

Then this molecule:
Input line: State the result this test recorded for CCCc1cc(=O)oc2c3c(c4c(c12)OC(C)(C)C=C4)O[C@@H](C)[C@H](C)C3=O .
Output line: -1

====

system: SK-MEL-5 melanoma; assay: NCI-60 one-dose screen, 48 h (100 = growth as untreated, 0 = no growth, -100 = all killed); details: 10 µM unless noted
Compounds without any hit were thinned out: in the full panel of roughly 83,000, 20% have a hit.
Output true (1) for growth not less than 70%; output false (0) otherwise.

Before answering, review these 7 worked examples.
Input line: Hi team, for OC(c1cccc(OCc2ccccc2)c1)c1nnc(-c2ccccc2)o1 (centres undefined) , is the recorded growth at or above 70%?
Output line: false (0)

Input line: Would you say COc1cc(C2C=C(c3cccc(NC(C)=O)c3)Nc3ncnn32)cc(OC)c1OC (centres undefined) shows growth at minimum 70%?
Output line: false (0)

Input line: Does growth meet or surpass 70% for C[N+](C)(C)CCOC(OCC[N+](C)(C)C)(c1ccccc1)c1ccccc1 ?
Output line: true (1)

Input line: hey, is growth for this one >= 70%? C=C1C(=O)O[C@H]2[C@H]1CC/C(Cn1cc(CNCCc3c[nH]c4ccc(Cl)cc34)nn1)=C\CC[C@@]1(C)O[C@@H]21
Output line: true (1)

Input line: Item COC(=O)/C(=C\c1ccc(OC)cc1)C(=O)N1c2ccccc2Sc2ccccc21 with growth of 70% or above?
Output line: false (0)

Input line: Form field: growth at least 70%? Entry: O=[N+]([O-])c1ccc(-c2cc3c(Nc4ccc(Sc5nc6ccccc6s5)c(Cl)c4)ncnc3s2)cc1
Output line: false (0)

Input line: Does growth meet or surpass 70% for O=C1Nc2ccccc2SC1C1SC(=S)N(Cc2ccccc2)C1=O (centres undefined) ?
Output line: true (1)

Continue with the compound presented below.
Input line: hey, is growth for this one >= 70%? O=C(CCl)N1c2cccc3cccc(c23)N(C(=O)CCl)C1c1cn(-c2ccccc2)nc1-c1cccc([N+](=O)[O-])c1
Output line: true (1)
